# tested.on: Beta-2 adrenergic receptor (Homo sapiens)
# Sequence (P07550 whole entry): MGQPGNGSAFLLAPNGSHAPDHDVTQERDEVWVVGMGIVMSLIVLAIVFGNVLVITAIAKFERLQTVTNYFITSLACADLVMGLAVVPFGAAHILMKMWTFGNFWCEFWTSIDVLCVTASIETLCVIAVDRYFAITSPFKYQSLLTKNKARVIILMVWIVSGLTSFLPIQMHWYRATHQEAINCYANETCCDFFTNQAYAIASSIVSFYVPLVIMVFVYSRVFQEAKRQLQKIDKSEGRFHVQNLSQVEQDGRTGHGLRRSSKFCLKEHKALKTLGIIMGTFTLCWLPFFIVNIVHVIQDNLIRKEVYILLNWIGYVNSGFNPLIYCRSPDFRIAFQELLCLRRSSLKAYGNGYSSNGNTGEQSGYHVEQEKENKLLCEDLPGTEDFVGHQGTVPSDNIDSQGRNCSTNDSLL
Classify by EC50. Ranges: 1: < 6 pM; 2: ≥ 6 pM and < 20 pM; 3: ≥ 20 pM

Lab note: which band did COc1ccc(CCCNCC(O)c2ccc(O)c3c2OCC(=O)N3)cc1 (centres undefined) land in?
1

---

# tested.on: Beta-1 adrenergic receptor (Homo sapiens, UniProt P08588)
# Sequence (P08588 whole entry): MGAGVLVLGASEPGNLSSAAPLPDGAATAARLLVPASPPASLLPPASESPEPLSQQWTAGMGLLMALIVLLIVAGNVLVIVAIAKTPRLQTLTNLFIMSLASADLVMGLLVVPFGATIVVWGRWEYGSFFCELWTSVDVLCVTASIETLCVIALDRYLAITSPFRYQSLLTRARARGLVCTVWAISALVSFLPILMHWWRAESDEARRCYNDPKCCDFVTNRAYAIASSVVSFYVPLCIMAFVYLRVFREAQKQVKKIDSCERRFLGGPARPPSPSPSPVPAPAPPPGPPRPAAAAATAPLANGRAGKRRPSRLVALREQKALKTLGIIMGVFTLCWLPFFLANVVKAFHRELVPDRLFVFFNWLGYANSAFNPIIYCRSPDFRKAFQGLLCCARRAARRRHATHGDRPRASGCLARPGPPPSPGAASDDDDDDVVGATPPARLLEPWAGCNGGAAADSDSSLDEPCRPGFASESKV
Criterion: EC50 strictly under 1 nM. Met: Met. Not met: Not met.

Observe how each entry below is paired with its result.
molecule	cat
O=C1COc2c(C(O)CNCCc3cccc(Cl)c3)ccc(O)c2N1 (configuration not stated)	Not met
O=C1COc2c(C(O)CNCCc3cccc(F)c3)ccc(O)c2N1 (configuration not stated)	Not met
O=C1COc2c(C(O)CNC3CC3)ccc(O)c2N1 (configuration not stated)	Not met
CCCCNCC(O)c1ccc(O)c2c1OCC(=O)N2 (configuration not stated)	Not met
O=C1COc2c(C(O)CNCCCc3ccc(O)cc3)ccc(O)c2N1 (configuration not stated)	Met
COc1cc(CCCNCC(O)c2ccc(O)c3c2OCC(=O)N3)cc(OC)c1OC (configuration not stated)	Not met
O=C1COc2c(C(O)CNCCCc3cccc(C(F)(F)F)c3)ccc(O)c2N1 (configuration not stated)	Met
O=C1COc2c(C(O)CNCCc3ccccc3Cl)ccc(O)c2N1 (configuration not stated)	Not met

is_below(EC50, 1 nM) for CCCNCC(O)c1ccc(O)c2c1OCC(=O)N2 (configuration not stated) ?
Not met

is_below(EC50, 1 nM) for O=C1COc2c(C(O)CNCCOc3ccccc3)ccc(O)c2N1 (configuration not stated) ?
Not met

is_below(EC50, 1 nM) for CC(C)NCC(O)c1ccc(O)c2c1OCC(=O)N2 (configuration not stated) ?
Not met

is_below(EC50, 1 nM) for O=C1COc2c(C(O)CNCCCc3ccccc3O)ccc(O)c2N1 (configuration not stated) ?
Met

---

Below are compounds with their EC50 as measured on Beta-1 adrenergic receptor (Homo sapiens, UniProt P08588).
// note: answer is a bare numeric in nM

Bench note, Beta-1 adrenergic receptor (Homo sapiens, UniProt P08588): entry COc1ccc(CCCNCC(O)c2ccc(O)c3c2OCC(=O)N3)cc1 (stereo not given) , its EC50 = 0.513

Bench note, Beta-1 adrenergic receptor (Homo sapiens, UniProt P08588): entry CCCCCCNCC(O)c1ccc(O)c2c1OCC(=O)N2 (stereo not given) , its EC50 = 2.19

Bench note, Beta-1 adrenergic receptor (Homo sapiens, UniProt P08588): entry Cc1cccc(CCCNCC(O)c2ccc(O)c3c2OCC(=O)N3)c1 (stereo not given) , its EC50 = 0.245

Bench note, Beta-1 adrenergic receptor (Homo sapiens, UniProt P08588): entry Cc1ccccc1CCNCC(O)c1ccc(O)c2c1OCC(=O)N2 (stereo not given) , its EC50 = 0.912

Bench note, Beta-1 adrenergic receptor (Homo sapiens, UniProt P08588): entry O=C1COc2c(C(O)CNCCCc3cc(F)cc(F)c3)ccc(O)c2N1 (stereo not given) , its EC50 = 0.105

Bench note, Beta-1 adrenergic receptor (Homo sapiens, UniProt P08588): entry O=C1COc2c(C(O)CNCCCc3ccccc3F)ccc(O)c2N1 (stereo not given) , its EC50 = 0.17

---

Below are compounds with their log10 of EC50 as measured on Beta-2 adrenergic receptor (Homo sapiens).
Use the decimal logarithm of EC50 (pM).

Sample O=C1COc2c(C(O)CNCCCc3cccc(O)c3)ccc(O)c2N1 (stereo not drawn) ; log10 of EC50 observed: 0.64

Sample COc1ccc(CCNCC(O)c2ccc(O)c3c2OCC(=O)N3)cc1 (stereo not drawn) ; log10 of EC50 observed: 1.12

Sample Cc1ccc(CCCNCC(O)c2ccc(O)c3c2OCC(=O)N3)cc1 (stereo not drawn) ; log10 of EC50 observed: 0.88

Sample O=C1COc2c(C(O)CNCCCc3ccc(C(F)(F)F)cc3)ccc(O)c2N1 (stereo not drawn) ; log10 of EC50 observed: 0.74

Sample COc1cc(CCCNCC(O)c2ccc(O)c3c2OCC(=O)N3)cc(OC)c1OC (stereo not drawn) ; log10 of EC50 observed: 1.73

Sample O=C1COc2c(C(O)CNCCCc3ccccc3)ccc(O)c2N1 (stereo not drawn) ; log10 of EC50 observed: 0.77

Sample COc1cccc(CCCNCC(O)c2ccc(O)c3c2OCC(=O)N3)c1 (stereo not drawn) ; log10 of EC50 observed: 0.90

Sample CCCNCC(O)c1ccc(O)c2c1OCC(=O)N2 (stereo not drawn) ; log10 of EC50 observed: 1.50

Sample O=C1COc2c(C(O)CNCCc3ccc(Cl)cc3)ccc(O)c2N1 (stereo not drawn) ; log10 of EC50 observed: 3.12

Sample O=C1COc2c(C(O)CNCCCc3ccccc3F)ccc(O)c2N1 (stereo not drawn) ; log10 of EC50 observed: 0.68

Sample Cc1ccccc1CCNCC(O)c1ccc(O)c2c1OCC(=O)N2 (stereo not drawn) ; log10 of EC50 observed: 1.45

Sample O=C1COc2c(C(O)CNCCc3cccc(Cl)c3)ccc(O)c2N1 (stereo not drawn) ; log10 of EC50 observed: 1.43

Sample O=C1COc2c(C(O)CNCCCc3ccc(F)cc3)ccc(O)c2N1 (stereo not drawn) ; log10 of EC50 observed: 0.58

Sample COc1ccccc1CCCNCC(O)c1ccc(O)c2c1OCC(=O)N2 (stereo not drawn) ; log10 of EC50 observed: 0.66

Sample O=C1COc2c(C(O)CNCCc3ccccc3F)ccc(O)c2N1 (stereo not drawn) ; log10 of EC50 observed: 1.06

Sample COc1cccc(CCNCC(O)c2ccc(O)c3c2OCC(=O)N3)c1 (stereo not drawn) ; log10 of EC50 observed: 0.94

Sample O=C1COc2c(C(O)CNCCC(c3ccccc3)c3ccccc3)ccc(O)c2N1 (stereo not drawn) ; log10 of EC50 observed: 1.67

Sample O=C1COc2c(C(O)CNCCCc3ccc(O)cc3)ccc(O)c2N1 (stereo not drawn) ; log10 of EC50 observed: 0.76
